B1: TPR 5TU (parent)
chain: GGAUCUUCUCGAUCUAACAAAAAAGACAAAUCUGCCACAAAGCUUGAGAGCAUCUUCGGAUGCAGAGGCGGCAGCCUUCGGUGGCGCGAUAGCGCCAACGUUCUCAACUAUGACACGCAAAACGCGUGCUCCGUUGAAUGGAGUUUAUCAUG

# Variants of: B1
# assay.procedure: polymerase ribozyme fitness, log enrichment relative to wild type (log ratio); higher = more active; in vitro selection for triplet polymerase activity
This sample holds only a part of the variants without activity.
recorded.endpoint: polymerase ribozyme fitness (log ratio)
// response body must contain only the number

GET /value?item= A16U A26C G84A &field=polymerase ribozyme fitness (log ratio) returns -3.52

Item: C51G A115C A122U | polymerase ribozyme fitness (log ratio): -3.82

Reported polymerase ribozyme fitness (log ratio) for A52G C87U was -1.3

Quick note, polymerase ribozyme fitness (log ratio) for A17G C93A A106G landed at -1.94

A12G C14A C57A C85G yielded polymerase ribozyme fitness (log ratio) of -3.75

For reference, reported polymerase ribozyme fitness (log ratio) for A19U C99U G133C U144G stands at -2.25

Reported polymerase ribozyme fitness (log ratio) for U56A G81U U101G was -0.889

Value of polymerase ribozyme fitness (log ratio) reported for the variant G59C A60U G68A C75A C108A is -4.15

Recorded result, C72U A89U A122U U146A , polymerase ribozyme fitness (log ratio): -0.532

polymerase ribozyme fitness (log ratio) in this record for C87U G141A : -0.85

New cases:
Value of measured polymerase ribozyme fitness (log ratio) for the entry G81A G92A U101A : -3.21

Sure, the documented polymerase ribozyme fitness (log ratio) for C93G C96A C105U C116U is -4.17
